Value source: patent US20240182456A1

Listed compounds paired with reported Emax
molecular target: UniProtKB P43220; assay: Human GLP1R cAMP agonist assay (GloSensor); type: cell-based; details: HEK293-SNAP-hGLP1R-GloSensor cells; cAMP; normalized to GLP1(7-36) maximum response; read-out: Emax mean
Sequence (P43220 24-463): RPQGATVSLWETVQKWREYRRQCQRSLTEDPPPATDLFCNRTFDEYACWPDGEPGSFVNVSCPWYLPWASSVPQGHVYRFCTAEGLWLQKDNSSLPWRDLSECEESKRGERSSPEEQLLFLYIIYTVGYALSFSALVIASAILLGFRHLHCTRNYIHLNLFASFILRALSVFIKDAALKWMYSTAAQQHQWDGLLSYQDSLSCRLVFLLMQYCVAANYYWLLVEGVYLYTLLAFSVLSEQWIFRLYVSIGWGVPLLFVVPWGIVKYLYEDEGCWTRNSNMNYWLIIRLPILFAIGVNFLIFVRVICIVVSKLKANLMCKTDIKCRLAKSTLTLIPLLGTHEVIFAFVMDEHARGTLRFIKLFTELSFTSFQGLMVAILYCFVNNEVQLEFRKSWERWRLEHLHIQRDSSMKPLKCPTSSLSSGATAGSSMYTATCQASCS
Kindly provide the numeric value in % only, without the unit symbol.

// solved cases for Emax follow
Cc1c(/C=C/C(=O)O)nc(CN2CCC(c3cccc4c3O[C@@](C)(c3ccc(Cl)cc3F)O4)CC2)n1C[C@@H]1CCO1: 105
CC(Cc1cnc(CN2CCC(c3cccc4c3O[C@@](C)(c3ccc(Cl)cc3F)O4)CC2)n1C[C@@H]1CCO1)C(=O)O (single isomer, unassigned) [Compound C-17a]: 104
C[C@]1(c2ccc(Cl)cc2F)Oc2cccc(C3CCN(Cc4ncc(/C=C/C(=O)O)n4C[C@@H]4CCO4)CC3)c2O1: 111
Cc1c(-c2nc(=O)o[nH]2)nc(CN2CCC(c3cccc4c3O[C@@](C)(c3ccc(Cl)cc3F)O4)CC2)n1C[C@@H]1CCO1: 104
Cc1c(C(=O)O)nc(CN2CCC(c3cccc4c3O[C@@](C)(c3ccc(Cl)cc3F)O4)CC2)n1C[C@@H]1CCO1: 109

**Query** What value of Emax has been recorded for this entry: C[C@]1(c2ccc(Cl)cc2F)Oc2cccc(C3CCN(Cc4nc(/C=C/C(=O)O)cn4C[C@@H]4CCO4)CC3)c2O1
**Result** 109

**Query** Ok, now Cc1nc(CN2CCC(c3cccc4c3O[C@@](C)(c3ccc(Cl)cc3F)O4)CC2)n(C[C@@H]2CCO2)c1C(=O)NCC(=O)O
**Result** 105

**Query** Ok, now C[C@]1(c2ccc(Cl)cc2F)Oc2cccc(C3CCN(Cc4nc(F)c(/C=C/C(=O)O)n4C[C@@H]4CCO4)CC3)c2O1
**Result** 116

**Query** Ok, now Cc1c(-c2cncc(C(=O)O)c2)nc(CN2CCC(c3cccc4c3O[C@@](C)(c3ccc(Cl)cc3F)O4)CC2)n1C[C@@H]1CCO1
**Result** 113

**Query** Ok, now Cc1nc(CN2CCC(c3cccc4c3O[C@@](C)(c3ccc(Cl)cc3F)O4)CC2)n(C[C@@H]2CCO2)c1/C=C/C(=O)O
**Result** 110

**Query** Ok, now Cc1nc(CN2CCC(c3cccc4c3O[C@@](C)(c3ccc(Cl)cc3F)O4)CC2)n(C[C@@H]2CCO2)c1C12CC(C(=O)O)(C1)C2 [Compound C-23a]
**Result** 107

**Query** Ok, now C[C@]1(c2ccc(Cl)cc2F)Oc2cccc(C3CCN(Cc4nc(C(F)(F)F)c(/C=C/C(=O)O)n4C[C@@H]4CCO4)CC3)c2O1
**Result** 108

**Query** Ok, now Cc1nc(CN2CCC(c3cccc4c3O[C@@](C)(c3ccc(Cl)cc3F)O4)CC2)n(C[C@@H]2CCO2)c1C(O)CC(=O)O (mixture of isomers)
**Result** 110

**Query** Ok, now Cc1c(-c2cccc(C(=O)O)c2)nc(CN2CCC(c3cccc4c3O[C@@](C)(c3ccc(Cl)cc3F)O4)CC2)n1C[C@@H]1CCO1
**Result** 107

**Query** Ok, now Cc1nc(CN2CCC(c3cccc4c3O[C@@](C)(c3ccc(Cl)cc3F)O4)CC2)n(C[C@@H]2CCO2)c1C#CC(=O)O
**Result** 102

**Query** Ok, now C[C@]1(c2ccc(Cl)cc2F)Oc2cccc(C3CCN(Cc4nc(-c5ccc(F)cc5)c(C#CC(=O)O)n4C[C@@H]4CCO4)CC3)c2O1
**Result** 104

**Query** Ok, now C[C@]1(c2ccc(Cl)cc2F)Oc2cccc(C3CCN(Cc4nc(-c5nnn[nH]5)c(C(F)(F)F)n4C[C@@H]4CCO4)CC3)c2O1
**Result** 110

**Query** Ok, now Cc1nc(CN2CCC(c3cccc4c3O[C@@](C)(c3ccc(Cl)cc3F)O4)CC2)n(C[C@@H]2CCO2)c1C1CC1C(=O)O (stereo partly shown)
**Result** 109

* * *

target: UniProt P43220; experiment: Human GLP1R cAMP agonist assay (GloSensor); assay type: cell-based; conditions: HEK293-SNAP-hGLP1R-GloSensor cells; cAMP; normalized to GLP1(7-36) maximum response; read-out: Emax mean
Listed compounds paired with reported Emax
Answer shape: numeric part, then the unit.

**Query** What value of Emax has been recorded for this entry: Cc1nc(CN2CCC(c3cccc4c3O[C@@](C)(c3ccc(Cl)cc3F)O4)CC2)n(C[C@@H]2CCO2)c1C(=O)O [Compound C-3]
**Result** 108%

**Query** Ok, now Cc1nc(CN2CCC(c3cccc4c3O[C@@](C)(c3ccc(Cl)cc3F)O4)CC2)n(C[C@@H]2CCO2)c1/C=C(\F)C(=O)O [Compound C-19b]
**Result** 111%

**Query** Ok, now C[C@]1(c2ccc(Cl)cc2F)Oc2cccc(C3CCN(Cc4nc(C(F)(F)F)c(C(=O)O)n4C[C@@H]4CCO4)CC3)c2O1 [Compound C-7]
**Result** 109%

**Query** Ok, now CCc1nc(CN2CCC(c3cccc4c3O[C@@](C)(c3ccc(Cl)cc3F)O4)CC2)n(C[C@@H]2CCO2)c1C(=O)O [Compound C-27]
**Result** 113%
